target: HLA-A*02:01; test: IEDB peptide-MHC binding, purified MHC/direct/fluorescence; filed as Kd, often an IC50 or EC50 that approximates it; bounds were set here for any values at or beyond the usual limits of such assays; details: source organism: Camelpox virus M-96
measured_endpoint: Kd (nM)
A number alone suffices; assume nM.

Specify Kd for `RVATENIAV` and stop.
22.7

====

biological target: HLA-B*27:05; assay: IEDB peptide-MHC binding, purified MHC/direct/fluorescence; filed as Kd, often an IC50 or EC50 that approximates it; bounds were set here for any values at or beyond the usual limits of such assays; details: source organism: Giardia intestinalis
measured_endpoint: Kd

Specify Kd for `INTLESMMK` and stop.
≥ 20 µM
